- Assayed system: Amyloid-beta precursor protein (Homo sapiens)
- Sequence (P05067 whole entry): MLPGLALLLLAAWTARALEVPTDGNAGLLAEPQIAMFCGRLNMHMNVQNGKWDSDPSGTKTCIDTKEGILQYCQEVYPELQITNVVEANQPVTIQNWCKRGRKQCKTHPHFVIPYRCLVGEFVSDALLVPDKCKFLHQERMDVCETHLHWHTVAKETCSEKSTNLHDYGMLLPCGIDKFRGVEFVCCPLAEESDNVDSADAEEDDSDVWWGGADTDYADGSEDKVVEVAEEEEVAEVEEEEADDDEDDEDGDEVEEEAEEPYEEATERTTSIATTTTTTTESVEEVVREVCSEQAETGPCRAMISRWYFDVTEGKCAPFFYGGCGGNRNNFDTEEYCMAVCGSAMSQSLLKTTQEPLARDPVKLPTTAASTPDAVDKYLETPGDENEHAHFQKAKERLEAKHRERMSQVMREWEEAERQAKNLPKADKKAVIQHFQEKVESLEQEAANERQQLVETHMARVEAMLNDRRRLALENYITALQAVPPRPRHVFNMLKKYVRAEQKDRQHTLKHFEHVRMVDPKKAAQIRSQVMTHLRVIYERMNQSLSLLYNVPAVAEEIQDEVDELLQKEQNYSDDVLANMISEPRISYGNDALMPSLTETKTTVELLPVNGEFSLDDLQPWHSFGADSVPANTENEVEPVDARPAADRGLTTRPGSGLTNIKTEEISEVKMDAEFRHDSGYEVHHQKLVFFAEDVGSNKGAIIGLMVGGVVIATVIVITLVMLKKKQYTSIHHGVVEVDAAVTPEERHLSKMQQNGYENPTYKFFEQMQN
- Assay notes: Inhibition of amyloid beta (1 to 42) (unknown origin) self aggregation at 50 uM relative to control
Measurement kind: inhibition (%)

O=c1ccoc(/C=C/c2ccc3ccccc3c2)c1O; 50.6
CN(C)c1ccc(/C=C/c2occc(=O)c2O)cc1; 53.7

a: COc1cc(/C=C/c2occc(=O)c2O)ccc1O
b: COc1cccc(/C=C/c2occc(=O)c2O)c1
c: O=c1ccoc(/C=C/c2ccc(F)c(O)c2)c1O
Could you please order the items by inhibition, going from the lowest number to the highest? Respond with the label ranking, as requested.
b, c, a
(b: 13.6%, c: 23.8%, a: 48.5%)
